# System under test: T1, recombinant soluble human TREM2 protein (human TREM2 ECD-FlagHis) (human, UniProt Q9NZC2 19-174)
# T1 sequence: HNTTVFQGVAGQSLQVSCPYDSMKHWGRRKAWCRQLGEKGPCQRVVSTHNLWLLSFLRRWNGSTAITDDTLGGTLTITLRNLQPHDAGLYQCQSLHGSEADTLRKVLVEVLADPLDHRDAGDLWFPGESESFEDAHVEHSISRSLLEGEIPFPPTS
# Assay details: Octet BLI binning; competitor: load Ab 24G6
# Protocol: Each of sixteen different anti-TREM2 antibodies produced from hybridomas were quantitated and loaded onto one of the anti-human Fc sensors at 5 μg/mL for 2 minutes (“Load Antibody”). The sensor was then blocked with 100 μg/mL of an irrelevant human IgG2 antibody for 5 minutes. […] Next, each of the sixteen different anti-TREM2 antibodies (“Sandwich Antibody”) was added to the sensor at 5 μg/mL and allowed to bind for 5 minutes. […]
// assign Met if sandwich binding signal falls strictly below 0.3, else Not met (ties count as Not met)

Query: # TODO verify sandwich binding signal < 0.3 strictly for this binder: 13E7 (antibody, human IgG2, V domains shown, human IgG2 from hybridoma) VH: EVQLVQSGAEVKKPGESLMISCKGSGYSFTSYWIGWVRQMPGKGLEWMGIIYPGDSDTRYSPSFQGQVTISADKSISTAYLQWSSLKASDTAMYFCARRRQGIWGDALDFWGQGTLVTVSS VL: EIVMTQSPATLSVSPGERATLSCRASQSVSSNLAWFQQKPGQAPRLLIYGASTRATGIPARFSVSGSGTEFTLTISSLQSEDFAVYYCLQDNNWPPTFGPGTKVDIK
Reply: Not met

Query: # TODO verify sandwich binding signal < 0.3 strictly for this binder: 10E3 (antibody, human IgG2, V domains shown, human IgG2 from hybridoma) VH: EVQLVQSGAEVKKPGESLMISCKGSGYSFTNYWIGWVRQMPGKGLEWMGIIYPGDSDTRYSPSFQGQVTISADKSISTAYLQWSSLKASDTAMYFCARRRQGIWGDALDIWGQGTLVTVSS VL: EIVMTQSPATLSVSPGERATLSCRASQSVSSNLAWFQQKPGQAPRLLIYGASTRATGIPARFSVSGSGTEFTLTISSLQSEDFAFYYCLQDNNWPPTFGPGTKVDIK
Reply: Not met

Query: # TODO verify sandwich binding signal < 0.3 strictly for this binder: 4C5 (antibody, V domains shown, human IgG2 from hybridoma) VH: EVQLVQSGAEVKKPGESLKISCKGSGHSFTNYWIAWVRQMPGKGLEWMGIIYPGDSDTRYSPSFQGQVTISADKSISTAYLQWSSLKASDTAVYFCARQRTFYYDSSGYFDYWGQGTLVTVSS VL: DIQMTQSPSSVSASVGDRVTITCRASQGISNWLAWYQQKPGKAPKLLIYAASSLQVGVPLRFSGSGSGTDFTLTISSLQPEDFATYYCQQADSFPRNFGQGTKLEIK
Reply: Met

Query: # TODO verify sandwich binding signal < 0.3 strictly for this binder: 6E7 (antibody, human IgG2, V domains shown, human IgG2 from hybridoma) VH: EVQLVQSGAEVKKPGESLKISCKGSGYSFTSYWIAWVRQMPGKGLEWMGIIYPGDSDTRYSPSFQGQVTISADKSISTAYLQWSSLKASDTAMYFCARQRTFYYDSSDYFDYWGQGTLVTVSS VL: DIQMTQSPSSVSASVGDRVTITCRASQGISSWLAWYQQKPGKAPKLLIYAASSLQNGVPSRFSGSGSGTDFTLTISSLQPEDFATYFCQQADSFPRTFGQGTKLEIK
Reply: Not met

Query: # TODO verify sandwich binding signal < 0.3 strictly for this binder: 24F4 (antibody, human IgG2, V domains shown, human IgG2 from hybridoma) VH: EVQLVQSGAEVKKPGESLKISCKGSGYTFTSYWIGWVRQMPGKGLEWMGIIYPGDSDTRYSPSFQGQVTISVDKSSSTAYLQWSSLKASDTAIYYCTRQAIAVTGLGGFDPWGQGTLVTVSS VL: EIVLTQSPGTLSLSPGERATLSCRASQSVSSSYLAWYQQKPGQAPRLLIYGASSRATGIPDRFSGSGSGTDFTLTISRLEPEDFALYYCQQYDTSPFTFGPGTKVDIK
Reply: Met
